Data provenance is patent US11260054B2.

As shown below, each of these molecules has a reported IC50 value.
Tested on: MiaPaCa-2 Cell Line
test_name: Pancreatic cancer cell survival assay, MiaPaCa-2 (CellTiter-Glo)
Format: cell-based
assay_context: 72 hrs incubation, read-out: Absolute IC50

molecule: CN(CCCCCCc1ccccc1)CCCCNC(=O)c1nc(Cl)c(NCc2ccc(Cl)cc2)nc1N [AA6]
IC50: 5.1 µM
--
molecule: N.N.[Cl][Pt][Cl] [Cisplatin, reference compound]
IC50: 12.2 µM
--
molecule: N/C(=N\C(=O)c1nc(Cl)c(NCc2ccc(I)cc2)nc1N)NCCCCc1ccccc1 [5m]
IC50: 4.3 µM

---

test_name: Pharmacokinetic parameters in mice, IV and oral
Format: in vivo, BALB/c mice
assay_context: mouse, blood; IV, 2 mg/kg, fed BALB/c mice, mean N = 3

structure_as_smiles: N/C(=N\C(=O)c1nc(Cl)c(NCc2ccc(I)cc2)nc1N)NCCCCc1ccccc1
clearance / mL/min/kg: 38.4

---

test_name: Pharmacokinetic parameters in mice, IV and oral
Format: in vivo, BALB/c mice
assay_context: mouse, blood; oral, 10 mg/kg, fed BALB/c mice, mean N = 3
Description: Fed BALB/c mice were administered either 2 mg/kg of 5 m intravenously via the tail vein or 10 mg/kg of 5 m orally. For both conditions, 5 m was dissolved in 10% DMSO/50% PEG400/40% Water. Blood was sampled at various timepoints after the compound was administered and was analyzed using AB Sciex API 4000 LC/MS/MS in positive ion mode.

structure_as_smiles: N/C(=N\C(=O)c1nc(Cl)c(NCc2ccc(I)cc2)nc1N)NCCCCc1ccccc1
CL/F, L/h/kg: 242

---

As shown below, each of these molecules has a reported pIC50 value.
System: PANC-1 Cell Line
test_name: Pancreatic cancer cell survival assay, PANC-1 (CellTiter-Glo)
Assay type: cell-based
assay_context: Homo sapiens, PANC-1, 72 h, 72 hrs incubation, read-out: Absolute IC50
pIC50: −log10 of the molar value.

molecule: CN(CCCCCCc1ccccc1)CCCCNC(=O)c1nc(Cl)c(NCc2ccc(Cl)cc2)nc1N
measured_on: PANC-1 Cell Line
pIC50: > 5.22
//
molecule: CN(C)C(=N)N=C(N)N [Metformin, reference compound]
measured_on: PANC-1 Cell Line
pIC50: < 2.30
//
molecule: N/C(=N\C(=O)c1nc(Cl)c(NCc2ccc(I)cc2)nc1N)NCCCCc1ccccc1
measured_on: PANC-1 Cell Line
pIC50: > 5.22

---

test_name: Pharmacokinetic parameters in mice, IV and oral
Assay type: in vivo, BALB/c mice
assay_context: mouse, blood; oral, 10 mg/kg, fed BALB/c mice, mean N = 3

compound: N/C(=N\C(=O)c1nc(Cl)c(NCc2ccc(I)cc2)nc1N)NCCCCc1ccccc1 [5m]
AUC(0-inf) / ng·h/mL: 41.5

---

test_name: Pharmacokinetic parameters in mice, IV and oral
Assay type: in vivo, BALB/c mice
assay_context: mouse, blood; IV, 2 mg/kg, fed BALB/c mice, mean N = 3
measured_quantity: AUC(0-t) (ng·h/mL)

compound: N/C(=N\C(=O)c1nc(Cl)c(NCc2ccc(I)cc2)nc1N)NCCCCc1ccccc1 [5m]
measured_quantity: AUC(0-t)
numeric_readout: 849

---

test_name: Pharmacokinetic parameters in mice, IV and oral
Type: in vivo, BALB/c mice
assay_context: mouse, blood; IV, 2 mg/kg, fed BALB/c mice, mean N = 3
Method: Fed BALB/c mice were administered either 2 mg/kg of 5 m intravenously via the tail vein or 10 mg/kg of 5 m orally. For both conditions, 5 m was dissolved in 10% DMSO/50% PEG400/40% Water. Blood was sampled at various timepoints after the compound was administered and was analyzed using AB Sciex API 4000 LC/MS/MS in positive ion mode.
measured_quantity: AUC(0-inf) (ng·h/mL)

compound: N/C(=N\C(=O)c1nc(Cl)c(NCc2ccc(I)cc2)nc1N)NCCCCc1ccccc1 [5m]
numeric_readout: 871

---

test_name: Pharmacokinetic parameters in mice, IV and oral
Format: in vivo, BALB/c mice
assay_context: mouse, blood; oral, 10 mg/kg, fed BALB/c mice, mean N = 3

structure_as_smiles: N/C(=N\C(=O)c1nc(Cl)c(NCc2ccc(I)cc2)nc1N)NCCCCc1ccccc1
Cmax, ng/mL: 18.3

---

test_name: Pharmacokinetic parameters in mice, IV and oral
Format: in vivo, BALB/c mice
assay_context: mouse, blood; IV, 2 mg/kg, fed BALB/c mice, mean N = 3

structure_as_smiles: N/C(=N\C(=O)c1nc(Cl)c(NCc2ccc(I)cc2)nc1N)NCCCCc1ccccc1
MRT inf (h): 4.1

---

test_name: Pharmacokinetic parameters in mice, IV and oral
Format: in vivo, BALB/c mice
assay_context: mouse, blood; oral, 10 mg/kg, fed BALB/c mice, mean N = 3
Procedure: Fed BALB/c mice were administered either 2 mg/kg of 5 m intravenously via the tail vein or 10 mg/kg of 5 m orally. For both conditions, 5 m was dissolved in 10% DMSO/50% PEG400/40% Water. Blood was sampled at various timepoints after the compound was administered and was analyzed using AB Sciex API 4000 LC/MS/MS in positive ion mode.
measured_quantity: AUC(0-t)

structure_as_smiles: N/C(=N\C(=O)c1nc(Cl)c(NCc2ccc(I)cc2)nc1N)NCCCCc1ccccc1
result: 32.8 ng·h/mL
